All figures here come from BigSolDB 2.1.

settings: in methanol, 283.15 K
Experimental Readout: solubility (mole fraction)
Reply briefly: the number, and no unit.

Data request: Request the reported solubility (mole fraction) associated with `CC(=O)Oc1ccc(C(c2ccc(OC(C)=O)cc2)c2ccccn2)cc1`
Data returned: 8.1e-05

* * *

conditions: in DMF, 273.15 K
Experimental Readout: solubility (mole fraction)
Reply briefly: the number, and no unit.

Data request: Request the reported solubility (mole fraction) associated with `CC(=O)Oc1ccc(C(c2ccc(OC(C)=O)cc2)c2ccccn2)cc1`
Data returned: 0.00201

* * *

details: in methanol, 298.15 K
Experimental Readout: solubility (mole fraction)
Reply briefly: the number, and no unit.

Data request: Request the reported solubility (mole fraction) associated with `CC(=O)Oc1ccc(C(c2ccc(OC(C)=O)cc2)c2ccccn2)cc1`
Data returned: 0.000147
